Cited source for all entries: patent US20180044434A1

target: T1, full-length recombinant human PAD4 (human, UniProt Q9UM07 1-663); assay: ELISA, immobilized human PAD4
T1 construct: Full-length recombinant; also called peptidylarginine deiminase 4
T1 sequence (Q9UM07 whole entry): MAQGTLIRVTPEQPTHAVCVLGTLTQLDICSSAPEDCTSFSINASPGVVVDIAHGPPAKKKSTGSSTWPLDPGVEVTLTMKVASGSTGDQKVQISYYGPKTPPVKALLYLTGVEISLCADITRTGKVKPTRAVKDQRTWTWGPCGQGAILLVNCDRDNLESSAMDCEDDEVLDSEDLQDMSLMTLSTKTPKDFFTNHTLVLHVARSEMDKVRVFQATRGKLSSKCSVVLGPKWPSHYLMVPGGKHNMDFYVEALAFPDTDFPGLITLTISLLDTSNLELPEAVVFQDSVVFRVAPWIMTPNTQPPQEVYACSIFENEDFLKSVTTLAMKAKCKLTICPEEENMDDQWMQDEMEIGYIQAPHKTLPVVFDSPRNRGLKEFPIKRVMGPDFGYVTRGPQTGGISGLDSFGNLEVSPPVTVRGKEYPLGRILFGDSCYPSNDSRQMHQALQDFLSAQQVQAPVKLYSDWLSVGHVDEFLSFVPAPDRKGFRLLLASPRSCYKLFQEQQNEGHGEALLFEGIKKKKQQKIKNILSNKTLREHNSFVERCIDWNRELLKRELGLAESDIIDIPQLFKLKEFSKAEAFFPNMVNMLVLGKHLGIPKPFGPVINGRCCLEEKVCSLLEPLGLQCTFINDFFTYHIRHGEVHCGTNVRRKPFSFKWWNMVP
readout-name: O.D. 490/630 at 0.0625 µg/mL
A bare number is all that is needed in reply.

O.D. 490/630 at 0.0625 µg/mL recorded for this binder, humanized anti-PAD4 antibody derived from H7, VH H4.15 / VL L4.15 (antibody, IgG1, V domains shown, IgG1 kappa; also called H7 H4.15/L4.15) VH: EVQLLESGGGLVQPGGSLRLSCAASGFTFSTYAMGWVRQAPGKGLEFVSAIRNDGSWTGYGAAVKGRFTISRDNSKNTVYLQMNSLRAEDTAVYYCAKYTGSSGGSIGAWGQGTLVTVSS VL: SYELTQPPSVSVSPGQTARITCSGGSGRYYYGWYQQKPGQAPVTVIYSSTHRPSGIPERFSGSNSGNTTTLTISGVQAEDEADYYCGTADSSSYVFGGGTKLTVLG , is 1.87
